// values below are reported TGI
# Tested on: A498 renal
# METHOD_DESCRIPTION: NCI tumour cell line growth inhibition, 48 h
REPORTED_ENDPOINT: TGI (µM)

compound=CC(C)OP(=O)(CN(C)/C(F)=N\C(F)(F)F)OC(C)C inequality_sign=> observed_value=100
compound="COc1cc(OC)c2c(c1OC)OCC(Cc1ccc(O)cc1)C2=O (stereo not given)" inequality_sign=> observed_value=25
compound=Cn1c(=O)cc2c3c(c(NCCCO)ccc31)C(=O)c1ccccc1-2 inequality_sign=> observed_value=100
compound=C(=C\c1csnn1)/c1cccnc1 inequality_sign=> observed_value=100
compound=CCC[C@H](N[C@@H]1CCc2cc(F)cc(F)c2C1)C(=O)Nc1cn(C(C)(C)CNCC(C)(C)C)cn1 inequality_sign== observed_value=42.9
compound=Cn1c(CCC#N)nc2ccc(Br)cc2c1=O inequality_sign=> observed_value=100
compound=O=C1OCC(C#Cc2ccccc2)=C1Cl inequality_sign== observed_value=38
compound=COc1cc(/C=C/C(C)=O)ccc1OP(=O)(O)O inequality_sign=> observed_value=100
compound=CC[C@@]1(O)C(=O)OCc2c1cc1n(c2=O)Cc2c-1nc1ccccc1c2CC[Si](C)(C)C inequality_sign== observed_value=0.315
compound="COc1ccc(C(c2ccc(C(C)C)cc(=O)c2O)c2c(O)cc3oc(-c4ccccc4)cc(=O)c3c2O)cc1 (stereo not given)" inequality_sign== observed_value=51.5
